# assay_method_text: Tested for plasma half life period in rat (0-8 hr)
# Assay type: ADME, organism-based
Measured half-life accompanies every entry in the list below.
Kindly write the number and append the unit.

INSERT INTO measurements (smi, recorded_metric, result_value) VALUES
  ('CN(C(=O)Oc1ccc(C[C@H](NC(=O)[C@]2(C)CCCN2S(=O)(=O)c2cc(Cl)cc(Cl)c2)C(=O)O)cc1)c1ccccc1', 'half-life', '12 min');

Inquiry: Please supply the value of reported half-life for the item O=C(O)[C@H](Cc1ccc(OC(=O)N2CCCC2)cc1)NC(=O)[C@@H]1CCCN1S(=O)(=O)c1ccccc1
Reply text: 12 min

---

# study_target: Integrin alpha-4/beta-7 (Homo sapiens, UniProt P13612+P26010)
# Sequence (P13612 whole entry): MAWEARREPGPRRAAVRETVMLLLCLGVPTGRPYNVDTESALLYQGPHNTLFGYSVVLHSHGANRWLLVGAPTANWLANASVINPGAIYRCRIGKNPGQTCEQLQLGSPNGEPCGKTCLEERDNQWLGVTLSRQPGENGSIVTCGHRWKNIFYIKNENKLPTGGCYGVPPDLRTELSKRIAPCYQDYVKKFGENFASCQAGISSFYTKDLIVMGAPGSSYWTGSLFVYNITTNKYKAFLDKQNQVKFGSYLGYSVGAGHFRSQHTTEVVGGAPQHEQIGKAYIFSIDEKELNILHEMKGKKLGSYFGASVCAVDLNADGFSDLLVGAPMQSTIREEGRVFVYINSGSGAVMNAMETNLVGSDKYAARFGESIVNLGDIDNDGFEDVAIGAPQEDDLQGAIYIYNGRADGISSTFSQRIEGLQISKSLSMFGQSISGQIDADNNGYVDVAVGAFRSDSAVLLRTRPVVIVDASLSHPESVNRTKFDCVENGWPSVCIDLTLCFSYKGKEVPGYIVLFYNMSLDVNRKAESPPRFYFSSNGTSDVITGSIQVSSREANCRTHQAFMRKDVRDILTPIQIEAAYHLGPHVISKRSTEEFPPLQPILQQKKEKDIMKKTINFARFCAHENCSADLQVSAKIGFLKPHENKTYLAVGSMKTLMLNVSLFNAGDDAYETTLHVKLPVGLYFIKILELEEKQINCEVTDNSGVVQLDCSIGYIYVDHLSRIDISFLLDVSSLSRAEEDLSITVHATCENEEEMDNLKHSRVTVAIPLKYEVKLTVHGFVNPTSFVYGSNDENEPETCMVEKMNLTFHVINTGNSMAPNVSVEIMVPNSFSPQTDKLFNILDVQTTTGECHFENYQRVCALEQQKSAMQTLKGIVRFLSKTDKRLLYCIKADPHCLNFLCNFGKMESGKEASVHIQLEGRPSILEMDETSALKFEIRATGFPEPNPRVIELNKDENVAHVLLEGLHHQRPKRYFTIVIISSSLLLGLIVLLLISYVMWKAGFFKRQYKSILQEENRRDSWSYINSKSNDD
# Sequence (P26010 whole entry): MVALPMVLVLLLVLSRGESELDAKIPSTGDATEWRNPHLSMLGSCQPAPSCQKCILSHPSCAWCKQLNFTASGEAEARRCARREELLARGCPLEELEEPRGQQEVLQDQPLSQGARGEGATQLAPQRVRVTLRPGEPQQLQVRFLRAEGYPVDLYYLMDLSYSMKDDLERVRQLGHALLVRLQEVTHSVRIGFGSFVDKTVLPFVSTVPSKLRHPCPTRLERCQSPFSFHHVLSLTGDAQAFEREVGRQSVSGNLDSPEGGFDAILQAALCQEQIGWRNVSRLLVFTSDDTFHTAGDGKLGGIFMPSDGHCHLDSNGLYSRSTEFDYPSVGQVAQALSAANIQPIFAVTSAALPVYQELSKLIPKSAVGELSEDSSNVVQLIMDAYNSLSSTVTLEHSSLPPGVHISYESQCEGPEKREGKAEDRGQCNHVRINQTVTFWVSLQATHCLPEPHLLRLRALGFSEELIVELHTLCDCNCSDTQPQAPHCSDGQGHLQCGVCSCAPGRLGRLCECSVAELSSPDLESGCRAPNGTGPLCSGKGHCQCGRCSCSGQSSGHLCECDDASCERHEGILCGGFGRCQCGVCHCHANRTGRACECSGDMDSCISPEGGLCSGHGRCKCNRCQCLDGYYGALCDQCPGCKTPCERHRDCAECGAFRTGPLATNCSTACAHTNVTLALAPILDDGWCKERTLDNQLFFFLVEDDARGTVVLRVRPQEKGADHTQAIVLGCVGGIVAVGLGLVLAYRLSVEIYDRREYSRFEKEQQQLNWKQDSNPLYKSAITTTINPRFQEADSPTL
# assay_method_text: Inhibition of [125I]VCAM-Ig binding to Alpha4-beta7 integrin of RPMI-8866 cells
# Format: cell-based
recorded_metric: IC50

Answered cases to consult:
INSERT INTO assay_data (smi, result_value) VALUES
  ('O=C(O)[C@H](Cc1ccc(O)cc1)NC(=O)[C@@H]1CCCN1S(=O)(=O)c1cc(Cl)cc(Cl)c1', '820 nM'),
  ('COc1ccc(C[C@H](NC(=O)[C@@H]2CCCN2S(=O)(=O)c2cc(Cl)cc(Cl)c2)C(=O)O)cc1', '362 nM'),
  ('CCCCOc1ccc(C[C@H](NC(=O)[C@@H]2CCCN2S(=O)(=O)c2cc(Cl)cc(Cl)c2)C(=O)O)cc1', '299 nM'),
  ('CC(C)(C)Oc1ccc(C[C@H](NC(=O)[C@@H]2CCCN2S(=O)(=O)c2cc(Cl)cc(Cl)c2)C(=O)O)cc1', '116 nM');

Next, consider the following compound.
Inquiry: Please supply the value of reported IC50 for the item CC(C)(C)Oc1ccc(C[C@H](NC(=O)[C@]2(C)CCCN2S(=O)(=O)c2cc(Cl)cc(Cl)c2)C(=O)O)cc1
Reply text: 647 nM
